Test: HD NK cell viability by DAPI flow cytometry (Example 2)
Format: cell-based
Settings: human, healthy donor (HD) NK cells purified from PBMCs; high concentrations 25-40 μM, after 4 days of treatment; read-out: reduction of HD NK cells viability
Experimental: Healthy donor buffy coats were supplied by EFS Ile de France. Immediately after reception, the qualified buffy coats were put under gentle agitation overnight at room temperature. […] To additionally assess cell viability, DAPI (Miltenyi Biotec, #130-111-570) was added in each well before plate reading by flow cytometry. Samples were then analyzed with the MACSQuant 16 flow cytometer (Miltenyi Biotec). […]
Measured Attribute: cytotoxicity at 4 days

Task: Data request, read-out cytotoxicity at 4 days, for CC(C)NC(=O)COc1cccc(-c2nc(Nc3ccc4[nH]ncc4c3)c3ccccc3n2)c1 [belumosudil]
Result: ≤ 10%

Data provenance is patent US20260199343A1.
